This collection of values is drawn from patent US12281122B1.

Each record here notes measured IC50.
tested on: SKBR3 (PI3Kα-Wild Type) cell line; experiment: HTRF phospho-AKT(S473) cell assay in SKBR3 cells; format: cell-based, human; details: Homo sapiens, SK-BR-3; HTRF phospho-AKT(S473), SKBR3 (PI3Kα-Wild Type) cells, 2 hours compound incubation, PDGF-BB stimulated
Experimental Readout: IC50

>>> value("Cc1cc([C@@H](C)Nc2ccc(Cl)nc2C(=O)NS(C)(=O)=O)c2nc(N3C[C@@H]4[C@H](C3)[C@H]4c3nc(C)no3)n(C)c(=O)c2c1")
"1 to 5 µM"
>>> value("Cc1cc([C@@H](C)Nc2ccc(Cl)nc2C(=O)NS(C)(=O)=O)c2nc(N3CC[C@H](c4cnc(C)c(C#N)c4)C3)n(C)c(=O)c2c1 (relative stereo) [Compound 656]")
"1 to 5 µM"
>>> value("Cc1cc([C@@H](C)Nc2ccc(Cl)nc2C(=O)NS(C)(=O)=O)c2nc(-c3ccc(OC4CCN(CC(F)F)CC4)nc3)n(C)c(=O)c2c1")
"≥ 5 µM"
